test system: SF-268 CNS; experiment: NCI-60 one-dose screen, 48 h (100 = growth as untreated, 0 = no growth, -100 = all killed); conditions: 10 µM unless noted
This is part of a sample that, as a whole, favours compounds with a hit. Of some 83,000 tested, about 20% had one in any assay.
readout_name: growth (%)

Cc1ccc([N+](=O)[O-])c(C)n1 : 98.6
C=C(C)[C@@H]1CC[C@]2(CO)CC[C@]3(C)[C@H](CC[C@@H]4[C@@]5(C)CC[C@H](O)C(C)(C)[C@@H]5CC[C@]43C)[C@@H]12 : 54.6
COCC(N)=O : 103
CC(=O)C1C(=O)C(=O)N(c2ccc(Cl)c(Cl)c2)C1=O (centres undefined) : 99.8
NNc1ncccn1 : 103
FC(F)(F)c1cc(NC2=NCCN=C(Nc3cc(C(F)(F)F)cc(C(F)(F)F)c3)SS2)cc(C(F)(F)F)c1 : 74.2
COc1nc(Nc2cccc(C(F)(F)F)c2)nc(OC)n1 : 98.4
Clc1ccc(C(SCc2ccccc2)SCc2ccccc2)cc1 : 91
CCOP(=O)(NC(c1ccccc1)c1ccccc1)OCC : 104
Cc1[nH]nc(C(N)=O)c1[N+](=O)[O-] : 99.4
C=CCNC(=S)N/C=C(/C(=O)c1ccccc1)c1ccccc1 : 98.2
CCOC(=N)CC(=O)Nc1cccc(C)c1Cl : 101
CN1CCCN(C(c2ccccc2)c2ccc(Cl)cc2)CC1 (centres undefined) : 82.3
CC(=O)OC/C(C)=C\CC(C)COC(C)=O (centres undefined) : 109
COc1ccc(/C=C\C(=O)/C=C/c2ccc(OC)cc2)cc1 : 105
COc1ccc(/C=N/NC(=O)COCC(=O)N/N=C/c2ccc(OC)cc2)cc1 : 110
COc1ccc(C(=O)C(=O)c2ccccc2)cc1 : 105
CC(=O)N(C(C)=O)c1ccc(C)cc1 : 96.9
CC(=O)c1ccc(C)cc1 : 107
O=C(Nc1cccc(Cl)c1)c1ccc(Cl)cc1Cl : 96.2
CC(C)N(CCCC#N)C(C)C : 103
CCOC(=O)c1cc(Cl)c(O)c(Cl)c1 : 97.7
O=C(NC(=S)N1CC=CCC1)c1ccccc1 : 108
Clc1cccc(Cl)c1CSc1nc2ccccc2n2cccc12 : 96.9
CCOC(=O)c1cc(C)[nH]c(=O)c1C#N : 105
C/C(O)=C(/C=N\C(=S)Nc1ccc(S(=O)(=O)Nc2nccs2)cc1)C(=O)Nc1ccccc1C : 88.8
c1ccc2[nH]c(Cc3nc4ccccc4[nH]3)nc2c1 : 131
Cc1cccc(C)c1NC(=S)/N=C\c1c(O)[nH]c(=O)[nH]c1=O : 98
C#CC(O)c1ccccc1 (centres undefined) : 112
C/C(=N\O)c1ccccn1 : 96.8
C=C(OC(C)=O)c1ccccc1 : 102
Cn1c2ccccc2c2nnc(NCCCCO)nc21 : 91.1
COc1cc(N)c2ncccc2c1Cl : 106
Nc1ncnc(Nc2ccc(C(F)(F)F)cc2)n1 : 101
COc1ccc(Br)c(C=O)c1 : 60.8
COC1C(=O)CCC2(CO2)C1(O)C1(C)OC1CCC(C)C (centres undefined) : 74.6
COc1cc(C(=O)NC(=S)NCc2ccncc2)cc(OC)c1OC : 102
BrCc1cccc(C[P+](c2ccccc2)(c2ccccc2)c2ccccc2)c1 : 56.4
O=S(Cc1ccccc1)/C(=C/NC(=S)Nc1ccccc1)c1ccccc1 (centres undefined) : 99.2
O=C(CCl)Nc1ccccc1SCc1cc(Cl)cc2c1OCOC2 : 93.8
COc1cccc(C(=O)NNC(=O)c2cccc3ccccc23)c1 : 110
COc1ccc(C2CC(c3ccccc3)=Nc3ccccc3S2)cc1 (centres undefined) : 105
CCCCCCCCCCCCCC/C=C\C(CC(=O)O)C(=O)O (centres undefined) : 103
COc1cccc2c1Cc1ccccc1-2 : 99.8

All figures here come from PubChem BioAssay (NCI).
